Protein target, amino acids: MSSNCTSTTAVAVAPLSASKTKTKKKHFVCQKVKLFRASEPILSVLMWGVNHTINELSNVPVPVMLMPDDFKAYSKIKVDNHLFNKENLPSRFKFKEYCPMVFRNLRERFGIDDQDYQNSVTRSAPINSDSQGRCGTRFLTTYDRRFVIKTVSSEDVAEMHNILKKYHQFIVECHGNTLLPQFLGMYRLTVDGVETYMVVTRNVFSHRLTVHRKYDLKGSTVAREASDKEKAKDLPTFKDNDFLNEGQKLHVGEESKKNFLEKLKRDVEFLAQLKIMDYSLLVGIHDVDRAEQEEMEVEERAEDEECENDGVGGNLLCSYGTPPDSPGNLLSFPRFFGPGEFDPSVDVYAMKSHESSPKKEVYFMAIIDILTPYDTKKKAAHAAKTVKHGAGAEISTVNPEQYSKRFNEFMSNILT
Each record here notes measured IC50.
reported_metric: IC50

CC(C)c1cc(Nc2cnc3c(c2)N2C(=O)C4(CC4)C[C@H]2CO3)ncc1-c1ccc(N2CCCC2=O)cc1	1 to 10 nM
CC(C)C(=O)N1CCOc2ncc(Nc3ccc(-c4ccc(N5CCCC5=O)cc4)cn3)cc21	10 to 100 nM
CN(C)C(=O)c1ccc(-c2ccc(Nc3cnc4c(c3)N(C(=O)C3CC3)CCO4)nc2)cc1	10 to 100 nM
CN(C)C/C=C/C(=O)NCCOCCOCCC(=O)Nc1cccc(C(=O)Nc2cncc(Nc3ccc(-c4ccc(C(=O)N(C)C)cc4)cn3)c2)c1	10 to 100 nM
CN(C)C(=O)c1ccc(-c2ccc(Nc3cncc(NC(=O)c4ccncc4)c3)nc2)cc1	10 to 100 nM
CN(C)C(=O)c1ccc(-c2ccc(Nc3cncc(N4CCN(Cc5ccccc5)C4=O)c3)nc2)cc1	10 to 100 nM
C[C@@H](c1ccccc1)N1CCN(c2cncc(Nc3ccc(-c4ccc(C(=O)N(C)C)cc4)cn3)c2)C1=O	10 to 100 nM
CN(C)C/C=C/C(=O)Nc1ccc(C(=O)Nc2cncc(Nc3ccc(-c4ccc(N5CCCC5=O)cc4)cn3)c2)cc1	10 to 100 nM
CC(C)(C)C(=O)N1CCOc2ncc(Nc3ccc(-c4ccc(N5CCCC5=O)cc4)cn3)cc21	10 to 100 nM
O=C1CCCN1c1ccc(-c2ccc(Nc3cnc4c(c3)N3C(=O)CC[C@@H]3CO4)nc2)cc1F	10 to 100 nM
CN(C)C(=O)c1ccc(-c2ccc(Nc3ccc(CNC(=O)c4cccc(NC(=O)OC(C)(C)C)c4)nc3)nc2)cc1	> 1000 nM
CC(C)Cn1cnnc1-c1ccc(-c2ccc(Nc3cnc4c(c3)N3C(=O)CC[C@H]3CO4)nc2)cc1	10 to 100 nM
O=C1CCCN1c1ccc(-c2cnc(Nc3cnc4c(c3)N3C(=O)CC[C@H]3CO4)nc2)cc1F	10 to 100 nM
COC(=O)Nc1cncc(Nc2ccc(-c3ccc(C(=O)N(C)C)cc3)cn2)c1	10 to 100 nM
O=C1CCCN1c1ccc(-c2cnc(Nc3cnc4c(c3)N3C(=O)CC[C@H]3CO4)nc2N2CCOCC2)cc1	1 to 10 nM
O=C([C@@H]1CCOC1)N1CCN(c2cncc(Nc3ccc(-c4ccc(N5CCCC5=O)cc4)cn3)c2)CC1	10 to 100 nM
Cc1cnnn1-c1ccc(-c2ccc(Nc3cnc4c(c3)N3C(=O)CC[C@H]3CO4)nc2)cc1	1 to 10 nM
O=C1CCCN1c1ccc(-c2cnc(Nc3cnc4c(c3)N3C(=O)CC[C@H]3CO4)cc2C2CC2)cc1	1 to 10 nM
CN(C)C(=O)c1ccc(-c2ccc(Nc3cncc(NC(=O)c4ccc(F)cc4)c3)nc2)cc1	10 to 100 nM
O=C(c1cccc2ncc(Nc3ccc(-c4ccc(N5CCCC5=O)cc4)cn3)cc12)N1CCCC1	> 1000 nM
O=C1CCCN1c1ccc(-c2ccc(Nc3cnc4c(c3)N(C(=O)CO)CCO4)nc2)cc1	10 to 100 nM
CN(C)C(=O)c1ccc(-c2ccc(Nc3cnc4c(c3)N3C(=O)CC[C@H]3CO4)nc2)cc1	10 to 100 nM
O=C(COc1cccc2c1C(=O)N(C1CCC(=O)NC1=O)C2=O)NCCCC(=O)Nc1ccc(C(=O)Nc2cncc(Nc3ccc(-c4ccc(N5CCCC5=O)cc4)cn3)c2)cc1 (centres unmarked)	10 to 100 nM
CN(C)C(=O)c1ccc(-c2ccc(Nc3cnc4c(c3)N(C(=O)CO)CCO4)nc2)cc1	10 to 100 nM
CC(C)c1nc(Nc2cnc3c(c2)N2C(=O)CC[C@H]2CO3)ncc1-c1ccc(N2CCCC2=O)cc1	1 to 10 nM
COCc1cc(Nc2cnc3c(c2)N2C(=O)C4(CC4)C[C@H]2CO3)ncc1-c1ccc(N2CCCC2=O)cc1	1 to 10 nM
CN(C)C(=O)c1ccc(-c2ccc(Nc3cnc4c(c3)N(C(=O)C(C)(C)C)CCO4)nc2)cc1	10 to 100 nM
CN(C)C(=O)c1ccc(-c2ccc(Nc3cncc(NC(=O)c4cccc(F)c4)c3)nc2)cc1	10 to 100 nM
COc1cncc(C(=O)Nc2cncc(Nc3ccc(-c4ccc(N5CCCC5=O)cc4)cn3)c2)c1	10 to 100 nM
